Attribution: PubChem BioAssay AID179

Recorded pIC50 for the following compounds
System: CEM cells HIV-1 protection, formazan growth assay
Experiment: NCI AIDS Antiviral Assay
Settings: measured here: growth of uninfected CEM cells
pIC50: −log10 of the molar value.

O=C(/C=C/c1ccccc1O)c1ccccc1; < 4.22
Cc1cn(CC2(CO)CCC2)c(=O)[nH]c1=O; < 3.70
CCS(=O)(=O)c1c2cc(OC)ccc2nc2ccc(OC)cc12; < 3.70

Now let's try a different one.
Note to self: pIC50 recorded for `Cc1ccccc1NC(=O)Cc1csc(N=Nc2c(O)[nH]c3ccccc23)n1` was < 3.70

====

Recorded pIC50 for the following molecules
Test system: CEM cells HIV-1 protection, formazan growth assay
Test: NCI AIDS Antiviral Assay
Details: measured here: growth of uninfected CEM cells
pIC50: −log10 of the molar value. Where a SMILES comes first, the peptide text is derived from it.

CC(C)CC(NC(=O)C(Cc1cnc[nH]1)NC(=O)C(CC(N)=O)NC(=O)C(NC(=O)C(CO)NC(=O)C(Cc1ccc(O)cc1)NC(=O)C(CO)NC(=O)C(C)NC(=O)C(N)CCCCN)C(C)O)C(=O)O (stereo not given) (H-KASYSTNHL-OH; configuration not given here); < 4.21
CCOC(=O)NNC(=O)NCCCCNC(=O)NNC(=O)OCC; < 3.70
COc1c(Cl)cc(C(=CCC(=O)O)c2cc(Cl)c(OC)c(C(=O)O)c2)cc1C(=O)O; < 3.70

Now let's try a different one.
Value sought: pIC50, system CEM cells HIV-1 protection, formazan growth assay, item NC(CCCCNCc1ccccc1O)C(=O)O (stereo not given) . Result: < 3.75

====

System: CEM cells HIV-1 protection, formazan growth assay
Test: NCI AIDS Antiviral Assay;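 active = compounds giving half or more protection of infected cells from virus-caused growth loss, again on retest; inactive = the rest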
Response enum: true (1) (active), false (0) (inactive)

// below: answered compounds
Nc1nc(Nc2ccc(Cl)c(Cl)c2)nc2nc[nH]c12; false (0)
Clc1ccc(C2=NN(c3ccccc3)C3c4cc(Br)ccc4OCC23)cc1 (stereo not given); false (0)
CN(C)c1ccc2nc3c(C(=O)O)cc(=O)c(O)c-3oc2c1; false (0)

What did this assay record as the result for CC(C)Cc1ccc(C(C)C(=O)O)cc1 (stereo not given) ? false (0)

What did this assay record as the result for `CC(=O)NS(=O)(=O)c1ccc(NCc2cccc3c(=O)c4ccc(Cl)cc4oc23)cc1` ? false (0)

What did this assay record as the result for CCOC(=O)C1Cc2cc(C)c(C)cc2N(C)C1=O (stereo not given) ? false (0)

What did this assay record as the result for `CC(=O)c1ccc(Br)cc1NC1=CC(=O)c2ncccc2C1=O` ? false (0)

What did this assay record as the result for COc1cc(C(O)c2ccc3c(c2)OCO3)cc(OC)c1OC (stereo not given) ? false (0)

What did this assay record as the result for `O=S(=O)(Nc1nnc2c3ccccc3ccn12)c1ccc(F)cc1S` ? true (1)

What did this assay record as the result for `S=C(SSSSC(=S)N1CCCCC1)N1CCCCC1` ? false (0)

What did this assay record as the result for `O=C(O)c1cc(OS(=O)(=O)O)c(OS(=O)(=O)O)c(OS(=O)(=O)O)c1` ? false (0)

What did this assay record as the result for `N#Cc1ncc(C[P+](c2ccccc2)(c2ccccc2)c2ccccc2)nc1N` ? false (0)

What did this assay record as the result for `Oc1ccc(/C=C/c2ccc(O)c(O)c2)cc1O` ? false (0)

What did this assay record as the result for CC1(C)NC(c2ccccc2)c2ccsc2-n2cccc21 (stereo not given) ? false (0)

What did this assay record as the result for COCc1cn(C2CCC(CO)O2)c(=O)nc1N (stereo not given) ? false (0)

What did this assay record as the result for `Cc1nc2cccc([N+](=O)[O-])c2c(NCCCN(C)C)c1C` ? false (0)

What did this assay record as the result for `CC(=O)OCCn1cnc2c(NCC=C(C)C)ncnc21` ? false (0)

What did this assay record as the result for `N#Cc1nc(CSCc2ccccc2)oc1N` ? false (0)

What did this assay record as the result for `O=[N+]([O-])c1ccc2c(c1)c(OCc1ccccc1)nn2Cc1ccccc1` ? false (0)

What did this assay record as the result for `COC(=O)c1c(C#N)c(N)nc2c1CCC2` ? false (0)

What did this assay record as the result for CCCC(=O)Nc1ccc(C2=NNC(=O)C3CC23)cc1 (stereo not given) ? false (0)
